- EXPERIMENTAL PROTOCOL: chemical genetic growth profiling, strain panel (AID 1159580);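 also: tested at 20 µM; growth read once vehicle control cultures reached saturation at 30 °C; 1 = growth at the plate median or of vehicle wells; lower values mean less growth of the strain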
- RUN CONDITIONS: S. cerevisiae deletion strains, growth OD, locus YNL224C, strain SQS1, hits give low values
Out of some 5,500 compounds screened, about 2,000 (36%) were called active. Not shown: some 18% with an inconclusive outcome. The list shows a part of the results.
MEASURE: normalized growth
The answer should be written as a number, with no unit following it.

Query: normalized growth for CNc1cc(NS(=O)(=O)c2ccc(N)cc2)nc(NC)n1 ?
Result: 0.994

Query: normalized growth for C[N+](C)(C)CCOC(N)=O ?
Result: 0.991

Query: normalized growth for O=c1onc2cnc3ccccc3n12 ?
Result: 0.987

Query: normalized growth for C[N+](C)(C)CCOC(=O)CCC(=O)OCC[N+](C)(C)C ?
Result: 1.01

Query: normalized growth for CNC(=O)[C@H]1O[C@@H](n2cnc3c(N)ncnc32)C(O)[C@H]1O (stereo partly drawn) ?
Result: 0.996

Query: normalized growth for CC(C[N+](C)(C)C)OC(N)=O (stereo not drawn) ?
Result: 0.995

Query: normalized growth for C[N+](C)(C)CCCCCCCCCC[N+](C)(C)C ?
Result: 0.983

Query: normalized growth for CP(=O)(O)C1=CCNCC1 ?
Result: 1.01

Query: normalized growth for Cc1c(C(=O)c2cccc3ccccc23)c2cccc3c2n1[C@H](CN1CCOCC1)CO3 ?
Result: 1.02

Query: normalized growth for CNC(=O)OCC[N+](C)(C)C ?
Result: 0.989

Query: normalized growth for CCCCNc1c(C(=O)OCC)c(C)nc2c1cnn2CC ?
Result: 0.951

Query: normalized growth for CC(C)OC(=O)C(C)(C)Oc1ccc(C(=O)c2ccc(Cl)cc2)cc1 ?
Result: 0.991

Query: normalized growth for CCOC(=O)c1cnc2c(cnn2CC)c1NN=C(C)C ?
Result: 0.97

* * *

- EXPERIMENTAL PROTOCOL: chemical genetic growth profiling, strain panel (AID 1159580)
- RUN CONDITIONS: S. cerevisiae deletion strains, growth OD, locus YDL192W, strain arf1
Out of some 5,500 compounds screened, about 2,000 (36%) were called active. About 18% were inconclusive and are not listed. Cut-off read from the data, not from the text of the source: active = normalized growth mostly below about 0.91 (no sharp cut-off); inconclusive = no clear call, values can overlap the other calls; inactive = mostly above about 0.92. Some of the results follow.
One label from this list, please: active, inactive

Query: Kindly provide the recorded test outcome for the following compound: C[N+](C)(C)CCOC(N)=O
Result: inactive

Query: Kindly provide the recorded test outcome for the following compound: COc1cc2c(cc1OC)[C@@H]1C(=O)c3ccc4c(c3O[C@@H]1CO2)C=CC(C)(C)O4
Result: inactive

Query: Kindly provide the recorded test outcome for the following compound: COc1cc2c(cc1OC)[C@@H]1C(=O)c3ccc(OC)c(CC=C(C)C)c3O[C@@H]1CO2
Result: inactive

Query: Kindly provide the recorded test outcome for the following compound: N=c1ccn2c(n1)O[C@@H]1C2O[C@H](CO)[C@H]1O (some centres undefined)
Result: inactive

Query: Kindly provide the recorded test outcome for the following compound: C=C(C)C1CNC(C(=O)O)C1CC(=O)O (centres undefined)
Result: inactive

Query: Kindly provide the recorded test outcome for the following compound: COc1cc2c(cc1OC)C1C(=O)c3c(cc4c(c3O)C=CC(C)(C)O4)OC1CO2 (centres undefined)
Result: inactive

Query: Kindly provide the recorded test outcome for the following compound: CC(C)CC(NC(=O)C(Cc1ccccc1)NC(=O)CNC(=O)CNC(=O)C(N)Cc1ccc(O)cc1)C(=O)O (centres undefined)
Result: inactive

Query: Kindly provide the recorded test outcome for the following compound: CCCCCCCCCCCCCCCC[N+](C)(C)C
Result: active

Query: Kindly provide the recorded test outcome for the following compound: CC1=C(C(C)O)C2=NC1C=c1[nH]c(c(C)c1C(C)O)=Cc1[nH]c(c(CCC(=O)O)c1C)C=c1[nH]c(c(C)c1CCC(=O)O)=C2 (centres undefined)
Result: inactive

* * *

- EXPERIMENTAL PROTOCOL: chemical genetic growth profiling, strain panel (AID 1159580);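 also: tested at 20 µM; growth read once vehicle control cultures reached saturation at 30 °C; 1 = growth at the plate median or of vehicle wells; lower values mean less growth of the strain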
- RUN CONDITIONS: S. cerevisiae deletion strains, growth OD, locus YLR418C, strain cdc73
About 2,000 (36%) of roughly 5,500 compounds were called active. About 18% were inconclusive and are not listed. Cut-off read from the data, not from the text of the source: active = normalized growth mostly below about 0.91 (no sharp cut-off); inconclusive = no clear call, values can overlap the other calls; inactive = mostly above about 0.92. This is one part of the list.
One label from this list, please: yes (active), no (inactive)

Query: Kindly provide the recorded test outcome for the following compound: COc1cc(NS(=O)(=O)c2ccc(N)cc2)nc(OC)n1
Result: no

Query: Kindly provide the recorded test outcome for the following compound: CCOC(=O)C1(O)Oc2cc(OC)cc(OC)c2C(=O)C1c1ccccc1 (stereo unspecified)
Result: no

Query: Kindly provide the recorded test outcome for the following compound: COc1cc(NC(C)CCCN)c2ncccc2c1 (stereo unspecified)
Result: no

Query: Kindly provide the recorded test outcome for the following compound: CCOC(=O)C(=O)C1(C(=O)OCC)Oc2cc(OC)cc(OC)c2C(=O)C1c1ccccc1 (stereo unspecified)
Result: yes

Query: Kindly provide the recorded test outcome for the following compound: CCN(CC)CCCC(C)Nc1ccnc2cc(Cl)ccc12 (stereo unspecified)
Result: no

Query: Kindly provide the recorded test outcome for the following compound: COC1=CC(=O)C[C@@H](C)[C@]12Oc1c(Cl)c(OC)cc(OC)c1C2=O
Result: no

* * *

- EXPERIMENTAL PROTOCOL: chemical genetic growth profiling, strain panel (AID 1159580);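 also: tested at 20 µM; growth read once vehicle control cultures reached saturation at 30 °C; 1 = growth at the plate median or of vehicle wells; lower values mean less growth of the strain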
- RUN CONDITIONS: S. cerevisiae deletion strains, growth OD, locus YDL185W, strain tfp1, hits give low values
The whole screen tested about 5,500 compounds, of which about 2,000 (36%) were called active. Roughly 18% stayed inconclusive and do not appear here. This is one part of the list.
With a cut-off of 1, any normalized growth strictly below it is called true; any normalized growth meeting it or above is called false.

Query: Regarding COc1ccc2c(c1)OCc1c-2oc2cc(OC)ccc12 , kindly confirm whether its normalized growth is beneath 1.
Result: false

Query: Regarding CCCCCCCCNC(C)C(O)c1ccc(SC(C)C)cc1 (configuration not stated) , kindly confirm whether its normalized growth is beneath 1.
Result: true

Query: Regarding CC(=O)OCC[N+](C)(C)C , kindly confirm whether its normalized growth is beneath 1.
Result: true

Query: Regarding CN[C@@H](C)[C@@H](O)c1ccccc1 , kindly confirm whether its normalized growth is beneath 1.
Result: true

Query: Regarding CC(C)(OC(=O)c1ccccc1)[C@@H]1Cc2cc3ccc(=O)oc3cc2O1 , kindly confirm whether its normalized growth is beneath 1.
Result: true

Query: Regarding COc1ccc2c(C)cc(=O)oc2c1 , kindly confirm whether its normalized growth is beneath 1.
Result: false

* * *

- EXPERIMENTAL PROTOCOL: chemical genetic growth profiling, strain panel (AID 1159580);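 also: tested at 20 µM; growth read once vehicle control cultures reached saturation at 30 °C; 1 = growth at the plate median or of vehicle wells; lower values mean less growth of the strain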
- RUN CONDITIONS: S. cerevisiae deletion strains, growth OD, locus YJL128C, strain PBS2, hits give low values
Hit rate of the full screen: of about 5,500 compounds, about 2,000 (36%) were called active. Roughly 18% stayed inconclusive and do not appear here. The list shows a part of the results.
MEASURE: normalized growth

Query: normalized growth for OC1(C(F)(F)F)CC(C23CC4CC(CC(C4)C2)C3)=NN1 (centres undefined) ?
Result: 0.946 (inactive)

Query: normalized growth for Cc1cc(C(=O)NNc2ccc(F)cc2F)no1 ?
Result: 0.965 (inactive)

Query: normalized growth for Cc1ccccc1C(=O)Oc1ccc(C(F)(F)F)cc1[N+](=O)[O-] ?
Result: 0.868 (inactive)

Query: normalized growth for Cc1ccc(OCC2SCCN2C(=O)c2ccc(C(F)(F)F)cc2)c([N+](=O)[O-])c1 (centres undefined) ?
Result: 0.979 (inactive)

Query: normalized growth for CC(=O)CSc1nnc(-c2ccc(C(C)(C)C)cc2)n1-c1ccc(Cl)cc1 ?
Result: 0.927 (inactive)

Query: normalized growth for Cc1ccc(Sc2c(Sc3ccc(C)cc3)c(=O)c2=O)cc1 ?
Result: 0.949 (inactive)

Query: normalized growth for O=C1C(=O)N(CN2CCc3c([nH]c4ccccc34)C2C(F)(F)F)c2ccc(F)cc21 (centres undefined) ?
Result: 0.934 (inactive)

Query: normalized growth for Nc1ccccc1SCc1c(Cl)cccc1Cl ?
Result: 0.914 (inactive)

Query: normalized growth for S=C(Nc1ccc(Cl)cc1Cl)N(c1cccc(Cl)c1)c1nc2ccccc2s1 ?
Result: 0.933 (inactive)

Query: normalized growth for CSC1=NNC(c2nn(C)cc2Cl)S1 (centres undefined) ?
Result: 0.31 (active)

Query: normalized growth for Cc1cc(Cl)ccc1NNC(=O)c1ccno1 ?
Result: 0.927 (inactive)

Query: normalized growth for CS(=NC(=O)c1cccc(Cl)c1)c1ccc(OC(=O)c2ccc(Cl)cc2)cc1 (centres undefined) ?
Result: 0.944 (inactive)

Query: normalized growth for O=c1c(Sc2ccc(Cl)cc2)c(Sc2ccc(Cl)cc2)c1=O ?
Result: 0.971 (inactive)

Query: normalized growth for Cc1nnsc1C(=O)Nc1cc(C(F)(F)F)cc(C(F)(F)F)c1 ?
Result: 0.957 (inactive)

Query: normalized growth for Cc1cc(NNC(=O)c2ccccc2Cl)nc2c1c(C)nn2C ?
Result: 0.966 (inactive)

Query: normalized growth for CCOC(=O)CSC(=S)NCc1ccc(C)cc1 ?
Result: 0.954 (inactive)

Query: normalized growth for O=C(NNc1ccccc1F)c1ccno1 ?
Result: 0.972 (inactive)

Query: normalized growth for COc1cc(NC(=S)N(C)C)c(OC)cc1Cl ?
Result: 0.976 (inactive)

Query: normalized growth for Cc1cc(C(=O)Nc2ccc(Cl)cc2)nn1C(C)(C)C ?
Result: 0.942 (inactive)

Query: normalized growth for Cc1ccc(/C=C2\CSc3ccc(F)cc3C2=O)cc1 ?
Result: 0.888 (inactive)

Query: normalized growth for Cc1nn(Cc2cccc(C(=O)Nc3ccc(Cl)cc3)c2)c(C)c1Br ?
Result: 0.952 (inactive)

Query: normalized growth for Cc1cc(Cl)ccc1NNC(=O)c1snnc1C ?
Result: 0.943 (inactive)

Query: normalized growth for COc1cc(NC(=S)NNS(=O)(=O)c2ccc(C)cc2)c(OC)cc1Cl ?
Result: 0.966 (inactive)

Query: normalized growth for Cc1c(Cc2ccc(F)cc2)c(=O)oc2cc(O)ccc12 ?
Result: 0.956 (inactive)

Query: normalized growth for Cc1nnsc1C(=O)NNc1ccc(F)cc1F ?
Result: 0.938 (inactive)

Query: normalized growth for CC(C)(C)CN/C(C#N)=C(/C#N)NCc1cccc(Cl)c1 ?
Result: 0.95 (inactive)

Query: normalized growth for Cc1nnsc1C(=O)NNc1c(Cl)cccc1Cl ?
Result: 0.926 (inactive)

Query: normalized growth for N#Cc1ccc(S(=O)(=O)Nc2ccccc2Oc2ccc(Cl)cc2Cl)cc1 ?
Result: 0.961 (inactive)

Query: normalized growth for O=C(Oc1ccc(C(F)(F)F)cc1[N+](=O)[O-])c1cccc(Cl)c1 ?
Result: 0.132 (active)
